Study system: Myelin-associated glycoprotein (Homo sapiens)
Protocol summary: Inhibition of human IgG Fc-domain tagged MAG N-terminal domain expressed in CHO cells assessed as relative inhibition potency by hapten inhibition assay relative to (2R,4S,5R,6R)-5-acetamido-2-(((2R,3R,4R,5R,6R)-5-acetamido-4-((2R,3R,4S,5S,6R)-4-((2S,4S,5R)-5-acetamido-2-carboxy-4-hydroxy-6-((1S,2S)-1,2,3-trihydroxypropyl)tetrahydro-2H-pyran-2-yloxy)-3,5-dihydroxy-6-(hydroxymethyl)tetrahydro-2H-pyran-2-yloxy)-3-hydroxy-6-(2-(trimethylsilyl)ethoxy)tetrahydro-2H-pyran-2-yl)methoxy)-4-hydroxy-6-((1S,2R)-1,2,3-trihydroxypropyl)tetrahydro-2H-pyran-2-carboxylic acid
Assay type: cell-based
Class true: Ratio IC50 at least 0.3. Class false: Ratio IC50 below 0.3.

Smiles data	Discrete label
CC(=O)N[C@H]1[C@H]([C@@H](O)[C@H](O)CO)O[C@@](O[C@H]2[C@@H](O)[C@@H](CO)O[C@@H](O[C@@H]3CCO[C@H](COCc4ccccc4)[C@@H]3O)[C@@H]2O)(C(=O)O)C[C@@H]1O	true
CC(=O)N[C@H]1[C@H]([C@@H](O)[C@H](O)CNC(=O)c2ccccc2)O[C@@](O[C@H]2[C@@H](O)[C@@H](CO)O[C@@H](O[C@H]3[C@@H](O)[C@@H](CO)O[C@@H](OCC[Si](C)(C)C)[C@@H]3O)[C@@H]2O)(C(=O)O)C[C@@H]1O	true
CC(=O)N[C@H]1[C@H](OCC[Si](C)(C)C)O[C@H](CO)[C@H](O)[C@@H]1O[C@@H]1O[C@H](CO)[C@H](O)[C@H](O[C@]2(C(=O)O)C[C@H](O)[C@@H](NC(C)=O)[C@H]([C@@H](O)[C@H](O)CO)O2)[C@H]1O	false
CC(=O)N[C@H]1[C@H](OCC[Si](C)(C)C)O[C@H](CO[C@H](C)C(=O)O)[C@H](O)[C@@H]1O[C@@H]1O[C@H](CO)[C@H](O)[C@H](O[C@]2(C(=O)O)C[C@H](O)[C@@H](NC(C)=O)[C@H]([C@@H](O)[C@H](O)CO)O2)[C@H]1O	false
CC(=O)N[C@H]1[C@H]([C@@H](O)[C@H](O)CNC(=O)c2ccccc2)O[C@@](O[C@H]2[C@@H](O)[C@@H](CO)O[C@@H](O[C@@H]3CCO[C@H](COCc4ccc(-c5ccccc5)cc4)[C@@H]3O)[C@@H]2O)(C(=O)O)C[C@@H]1O	true
CC(=O)N[C@H]1[C@H](OCC[Si](C)(C)C)O[C@H](CO[C@@H](Cc2ccccc2)C(=O)O)[C@H](O)[C@@H]1O[C@@H]1O[C@H](CO)[C@H](O)[C@H](O[C@]2(C(=O)O)C[C@H](O)[C@@H](NC(C)=O)[C@H]([C@@H](O)[C@H](O)CO)O2)[C@H]1O	true
CC(=O)N[C@H]1[C@H]([C@@H](O)[C@H](O)CO)O[C@@](O[C@H]2[C@@H](O)[C@@H](CO)O[C@@H](O[C@@H]3CCO[C@H](CO[C@@H](Cc4ccccc4)C(=O)O)[C@@H]3O)[C@@H]2O)(C(=O)O)C[C@@H]1O	true
CC(=O)N[C@H]1[C@H]([C@@H](O)[C@H](O)CO)O[C@@](O[C@H]2[C@@H](O)[C@@H](CO)O[C@@H](O[C@@H]3CCO[C@H](CO[C@H](C)C(=O)O)[C@@H]3O)[C@@H]2O)(C(=O)O)C[C@@H]1O	true
CC(=O)N[C@H]1[C@H](OCC[Si](C)(C)C)O[C@H](CO[C@@H](C)C(=O)O)[C@H](O)[C@@H]1O[C@@H]1O[C@H](CO)[C@H](O)[C@H](O[C@]2(C(=O)O)C[C@H](O)[C@@H](NC(C)=O)[C@H]([C@@H](O)[C@H](O)CO)O2)[C@H]1O	true
